test system: 134 cancer cell lines; experiment: Cell viability assay (ATPlite, 72 hours), IC50 on cancer cell line panel; details: read-out: IC50 in cell proliferation assay, cell line A-388
pIC50: −log10 of the molar value.
measurement.type: pIC50

INSERT INTO measurements (molecule, comparison_operator, observed) VALUES
  ('FC(F)(F)c1ccc(CNc2ccc(Cc3c[nH]c4ncc(Cl)cc34)cn2)cn1 [pexidartinib]', '<', 4.50),
  ('CC(C)(C)c1nc(-c2cccc(NS(=O)(=O)c3c(F)cccc3F)c2F)c(-c2ccnc(N)n2)s1 [dabrafenib]', '<', 5.00),
  ('COc1cc2ncnc(Nc3ccc(F)c(Cl)c3)c2cc1NC(=O)/C=C/CN1CCCCC1 [dacomitinib]', '=', 7.72),
  ('Cc1cc(Nc2ncnc3ccc(NC4=NC(C)(C)CO4)cc23)ccc1Oc1ccn2ncnc2c1 [tucatinib]', '=', 4.80),
  ('COc1ccc(CN2C3CC2CN(c2ccc(-c4cc(OCC(C)(C)O)cn5ncc(C#N)c45)cn2)C3)cn1 [selpercatinib]', '=', 5.02);

====

# reported inhibition at 1 µM; entries follow
biological target: UniProt P07947; assay: Kinase panel profiling at 1 µmol/L (MSA or IMAP), percentage inhibition; type: biochemical; conditions: kinase YES; 1 µmol/L single concentration; read-out: %-inhibition at 1 µmol/L, YES
Sequence (P07947 whole entry): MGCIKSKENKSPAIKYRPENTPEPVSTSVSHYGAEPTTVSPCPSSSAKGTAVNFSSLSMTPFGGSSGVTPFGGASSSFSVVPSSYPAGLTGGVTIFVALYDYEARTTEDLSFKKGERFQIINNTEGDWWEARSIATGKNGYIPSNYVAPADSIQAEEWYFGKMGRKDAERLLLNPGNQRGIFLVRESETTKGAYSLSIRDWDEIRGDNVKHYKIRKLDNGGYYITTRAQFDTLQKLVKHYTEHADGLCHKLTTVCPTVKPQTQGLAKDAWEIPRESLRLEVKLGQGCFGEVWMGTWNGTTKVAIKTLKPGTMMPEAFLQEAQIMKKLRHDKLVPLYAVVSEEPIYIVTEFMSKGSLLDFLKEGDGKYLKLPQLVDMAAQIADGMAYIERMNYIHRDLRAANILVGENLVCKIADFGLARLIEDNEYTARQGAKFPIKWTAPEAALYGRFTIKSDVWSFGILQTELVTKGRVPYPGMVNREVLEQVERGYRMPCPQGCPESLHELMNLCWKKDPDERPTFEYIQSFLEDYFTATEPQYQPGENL
measurement.type: inhibition at 1 µM (%)

INSERT INTO results (compound, measurement_type, observed) VALUES
  ('CCc1nc(C(N)=O)c(Nc2ccc(N3CCC(N4CCN(C)CC4)CC3)c(OC)c2)nc1NC1CCOCC1 [gilteritinib]', 'inhibition at 1 µM', 98),
  ('CCn1c(=O)c(-c2cc(NC(=O)Nc3ccccc3)c(F)cc2Br)cc2cnc(NC)cc21 [ripretinib]', 'inhibition at 1 µM', 81),
  ('C[C@H](Nc1ncnc2nc[nH]c12)c1cc2cccc(Cl)c2c(=O)n1-c1ccccc1 [duvelisib]', 'inhibition at 1 µM', -2.44),
  ('Cn1cnc2c(F)c(Nc3ccc(Br)cc3F)c(C(=O)NOCCO)cc21 [binimetinib]', 'inhibition at 1 µM', 2.16),
  ('CN1CCN(c2ccc(C(=O)Nc3n[nH]c4ccc(Cc5cc(F)cc(F)c5)cc34)c(NC3CCOCC3)c2)CC1 [entrectinib]', 'inhibition at 1 µM', 98),
  ('Cc1cc(Nc2ncnc3ccc(NC4=NC(C)(C)CO4)cc23)ccc1Oc1ccn2ncnc2c1 [tucatinib]', 'inhibition at 1 µM', 3.64),
  ('Cn1cnc2c(F)c(Nc3ccc(Br)cc3Cl)c(C(=O)NOCCO)cc21 [selumetinib]', 'inhibition at 1 µM', 14),
  ('Cc1nc(NC(=O)N2CCC[C@H]2C(N)=O)sc1-c1ccnc(C(C)(C)C(F)(F)F)c1 [alpelisib]', 'inhibition at 1 µM', -4),
  ('C[C@H]1Oc2cc(cnc2N)-c2c(nn(C)c2C#N)CN(C)C(=O)c2ccc(F)cc21 [lorlatinib]', 'inhibition at 1 µM', 28),
  ('FC(F)(F)c1ccc(CNc2ccc(Cc3c[nH]c4ncc(Cl)cc34)cn2)cn1 [pexidartinib]', 'inhibition at 1 µM', 16);

====

# reported inhibition at 1 µM; entries follow
Target: panel of 255 wild-type kinases (Homo sapiens, UniProt Q12851)
Sequence (Q12851 1-820): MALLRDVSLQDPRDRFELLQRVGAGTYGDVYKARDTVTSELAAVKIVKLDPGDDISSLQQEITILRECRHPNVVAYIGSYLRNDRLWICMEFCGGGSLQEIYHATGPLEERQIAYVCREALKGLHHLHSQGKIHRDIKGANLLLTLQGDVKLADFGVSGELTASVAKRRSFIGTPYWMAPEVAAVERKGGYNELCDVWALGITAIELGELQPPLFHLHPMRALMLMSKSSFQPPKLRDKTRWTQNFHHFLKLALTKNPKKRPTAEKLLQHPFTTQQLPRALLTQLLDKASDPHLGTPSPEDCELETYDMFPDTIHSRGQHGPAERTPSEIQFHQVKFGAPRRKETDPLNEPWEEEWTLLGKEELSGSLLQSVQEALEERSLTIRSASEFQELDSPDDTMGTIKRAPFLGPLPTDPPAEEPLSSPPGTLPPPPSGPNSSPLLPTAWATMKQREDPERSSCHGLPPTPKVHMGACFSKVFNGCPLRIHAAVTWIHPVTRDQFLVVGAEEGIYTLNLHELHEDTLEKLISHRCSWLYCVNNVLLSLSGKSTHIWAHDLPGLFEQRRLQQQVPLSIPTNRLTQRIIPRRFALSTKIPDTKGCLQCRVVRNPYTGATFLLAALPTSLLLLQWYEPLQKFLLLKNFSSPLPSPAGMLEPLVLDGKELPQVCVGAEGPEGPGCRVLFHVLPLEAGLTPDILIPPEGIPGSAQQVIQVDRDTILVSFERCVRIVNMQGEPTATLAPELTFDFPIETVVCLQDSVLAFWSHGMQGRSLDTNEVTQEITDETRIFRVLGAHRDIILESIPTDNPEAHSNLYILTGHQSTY
Experiment: Kinase panel profiling at 1 µmol/L (MSA or IMAP), percentage inhibition
Type: biochemical
Settings: kinase MAP4K2; 1 µmol/L single concentration; read-out: %-inhibition at 1 µmol/L, MAP4K2
measurement.type: inhibition at 1 µM (%)

INSERT INTO assay_data (molecule, tested_on, reading_unit, observed) VALUES
  ('CCN1C(=O)N(c2c(F)c(OC)cc(OC)c2F)Cc2cnc3[nH]c(CN4CCOCC4)cc3c21 [pemigatinib]', 'panel of 255 wild-type kinases (Homo sapiens, UniProt Q12851)', '%', 8),
  ('CN1CCN(c2ccc(C(=O)Nc3n[nH]c4ccc(Cc5cc(F)cc(F)c5)cc34)c(NC3CCOCC3)c2)CC1 [entrectinib]', 'panel of 255 wild-type kinases (Homo sapiens, UniProt Q12851)', '%', 85),
  ('O=C(Nc1cnn2ccc(N3CCC[C@@H]3c3cc(F)ccc3F)nc12)N1CC[C@H](O)C1 [larotrectinib]', 'panel of 255 wild-type kinases (Homo sapiens, UniProt Q12851)', '%', -2),
  ('Cc1nc(NC(=O)N2CCC[C@H]2C(N)=O)sc1-c1ccnc(C(C)(C)C(F)(F)F)c1 [alpelisib]', 'panel of 255 wild-type kinases (Homo sapiens, UniProt Q12851)', '%', 5.56),
  ('Cc1cc(Nc2ncnc3ccc(NC4=NC(C)(C)CO4)cc23)ccc1Oc1ccn2ncnc2c1 [tucatinib]', 'panel of 255 wild-type kinases (Homo sapiens, UniProt Q12851)', '%', 6),
  ('C[C@H]1Oc2cc(cnc2N)-c2c(nn(C)c2C#N)CN(C)C(=O)c2ccc(F)cc21 [lorlatinib]', 'panel of 255 wild-type kinases (Homo sapiens, UniProt Q12851)', '%', 20),
  ('Cn1cnc2c(F)c(Nc3ccc(Br)cc3Cl)c(C(=O)NOCCO)cc21 [selumetinib]', 'panel of 255 wild-type kinases (Homo sapiens, UniProt Q12851)', '%', 2.67),
  ('CCN1CCN(c2ccc(Nc3cc(N(C)C(=O)Nc4c(Cl)c(OC)cc(OC)c4Cl)ncn3)cc2)CC1 [infigratinib]', 'panel of 255 wild-type kinases (Homo sapiens, UniProt Q12851)', '%', 23),
  ('Cn1cnc2c(F)c(Nc3ccc(Br)cc3F)c(C(=O)NOCCO)cc21 [binimetinib]', 'panel of 255 wild-type kinases (Homo sapiens, UniProt Q12851)', '%', -1.27),
  ('COc1ccc(CN2C3CC2CN(c2ccc(-c4cc(OCC(C)(C)O)cn5ncc(C#N)c45)cn2)C3)cn1 [selpercatinib]', 'panel of 255 wild-type kinases (Homo sapiens, UniProt Q12851)', '%', 4.23),
  ('CO[C@]1(C(=O)N[C@@H](C)c2ccc(-n3cc(F)cn3)nc2)CC[C@H](c2nc(C)cc(Nc3cc(C)[nH]n3)n2)CC1 [pralsetinib]', 'panel of 255 wild-type kinases (Homo sapiens, UniProt Q12851)', '%', 3.5),
  ('COc1cc2ncnc(Nc3ccc(F)c(Cl)c3)c2cc1NC(=O)/C=C/CN1CCCCC1 [dacomitinib]', 'panel of 255 wild-type kinases (Homo sapiens, UniProt Q12851)', '%', -2.38),
  ('CCn1c(=O)c(-c2cc(NC(=O)Nc3ccccc3)c(F)cc2Br)cc2cnc(NC)cc21 [ripretinib]', 'panel of 255 wild-type kinases (Homo sapiens, UniProt Q12851)', '%', 44),
  ('COC(=O)N[C@@H](C)CNc1nccc(-c2cn(C(C)C)nc2-c2cc(Cl)cc(NS(C)(=O)=O)c2F)n1 [encorafenib]', 'panel of 255 wild-type kinases (Homo sapiens, UniProt Q12851)', '%', 4),
  ('Cn1cc(-c2cc3c(N4CCN(c5ncc([C@@](C)(N)c6ccc(F)cc6)cn5)CC4)ncnn3c2)cn1 [avapritinib]', 'panel of 255 wild-type kinases (Homo sapiens, UniProt Q12851)', '%', 14);
